Provide the recorded apparent KD of K4 kissing-loop reporter for the entries that follow.
- Tested on: K4 kissing-loop RNA reporter;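 note: bound reporter read as fluorescence of individual clusters on recovered sequencing chips by microscopy, with normalized cluster intensities fitted with a binding model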
- protocol: apparent KD of K4 kissing-loop reporter; higher = weaker reporter binding
- condition_notes: Eterna round: R107; input ligand: arginine 13.2 mM
One number for each entry, in nM.

Would you please look over these solved cases?
query_sequence | apparent KD of K4 kissing-loop reporter [nM]
UCAUGUGCCAGUGAUGUUGGCGUACGUGAUACCAGACGAAUAAAAGUCCCUUGGCAGCACAAAUAAGCCAAGAUAGAUGAAUGAU [Exclusion Theophylline A GF 1] | 125
ACUACGAAGACGGCCGCCACUGAUAUUCGUAGAUCCAUCAUUGCAUGAGUGAUGUUCAUGUAUAUCAGGACCGGGUCAAGAUGGU [KL-XTryp-B18 #analogue] | 245
AGUCCACUCUAAAGAGUGGACCUAAGGGAUACCAGUGAUGUUGGUCACCCUUGGCAGCCCUCUGUCAUCGAUAAAGAUGGCAGAA | 110
AAAAGAAAGUCGGCCGCCACUCAACGCAGUGAUGUUGCAAGACAGAAGAGCAGUGAUGUUGCCCAGAGGACCGGGACACAAGGCC [Same State Typtophan B GF 3] | 384
GCCGUACGCAUGGAUACCAGUCUACAUCGCAGUGAUGUUGCGUAGUUCAGAUUAACUGCCGACCCUUGGCAGCCAUGCGUACGGC | 111

Next, consider the following sequence.
The sequence identified as AGUACGGACGCGGCCGCCACUCAGAAGAAGACGGUAGUGAUGUUACUGAUGGUGAGAACAAUAAAGAGGACCGGGUGUCGUGCAA [#06 K4 Tryptophan B Same State] registered its apparent KD of K4 kissing-loop reporter at 464
